- ASSAY DETAILS: growth inhibition of GSK3B-pretreated HCT116 cells – cell-based, CellTiter-Glo, 0.2 to 20 µM (AID 1117336)
- PARTICULARS: HCT116 viability after GSK3B inhibitor, at 20 µM, stronger effect = higher value
Listed compounds paired with reported viability decrease
Express it in %; write the number only.

Give its viability decrease value. Item: CCOc1ccc(C(=O)OCCN(CC)CC)cc1
6.1

----------
- ASSAY DETAILS: stimulators of nuclear beta-catenin in C2C12, primary screen, imaging, WNT3A-conditioned medium, mouse C2C12, NPC library (AID 1117326); also: reference of the scale not given here
- PARTICULARS: stimulation, at 2 µM, stronger effect = higher value
Listed molecules paired with reported nuclear beta-catenin stimulation
Express it in %; write the number only.

Give its nuclear beta-catenin stimulation value. Item: CC[C@H]1CN2CCc3cc(OC)c(OC)cc3[C@@H]2C[C@@H]1C[C@H]1NCCc2cc(OC)c(OC)cc21
9.1

Give its nuclear beta-catenin stimulation value. Item: C=Cc1c(C)c2cc3nc(cc4[nH]c(cc5nc(cc1[nH]2)C(C)=C5CCC(=O)O)c(CCC(=O)OC)c4C)[C@@]1(C)C3=CC=C(C(=O)OC)[C@@H]1C(=O)OC
0.4

Give its nuclear beta-catenin stimulation value. Item: COC(=O)c1cc(S(C)(=O)=O)ccc1OC
3.6

Give its nuclear beta-catenin stimulation value. Item: CCCC(CCC)C(N)=O
-1

----------
- ASSAY DETAILS: growth inhibition of GSK3B-pretreated HCT116 cells – cell-based, CellTiter-Glo, 0.2 to 20 µM (AID 1117336)
- PARTICULARS: HCT116 viability after GSK3B inhibitor, at 20 µM
The source made the active and inactive calls.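 How the source made its calls: active means compounds lowering colon cancer cell viability after pretreatment blocking the GSK3B kinase; inactive means the rest.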
Would you mind answering with one of these outcomes? TRUE (active), FALSE (inactive)

| MOLECULE | GROUP LABEL |
| --- | --- |
| Clc1cccc(Cl)c1NC1=NCCN1 | FALSE |
| Nc1ncnc(Nc2ccccc2)n1 | FALSE |
| O=C(O)c1c(O)c(-c2ccccc2)nc2ccccc12 | TRUE |

--- query ---
Look up the recorded call for CCCCCOc1ccc(C2SC(=O)NC2=O)cc1OCC (centres undefined) in this test.
FALSE

These measurements were taken from PubChem BioAssay.
